target: Proto-oncogene tyrosine-protein kinase receptor Ret (Homo sapiens, UniProt P07949); assay: Inhibition of full length His-tagged human recombinant RET expressed in baculovirus infected Sf9 cells
observable: IC50

**Q:** Tell me the measured IC50 of `CN1CCN(Cc2ccc(NC(=O)c3cncc(C#Cc4cnc(N)c5ncccc45)c3)cc2C(F)(F)F)CC1` , please.
**A:** 3.16 nM

====

target: Coiled-coil domain-containing protein 6/Tyrosine-protein kinase receptor RET (Homo sapiens)
Sequence (P07949 whole entry, the tested form may be a part): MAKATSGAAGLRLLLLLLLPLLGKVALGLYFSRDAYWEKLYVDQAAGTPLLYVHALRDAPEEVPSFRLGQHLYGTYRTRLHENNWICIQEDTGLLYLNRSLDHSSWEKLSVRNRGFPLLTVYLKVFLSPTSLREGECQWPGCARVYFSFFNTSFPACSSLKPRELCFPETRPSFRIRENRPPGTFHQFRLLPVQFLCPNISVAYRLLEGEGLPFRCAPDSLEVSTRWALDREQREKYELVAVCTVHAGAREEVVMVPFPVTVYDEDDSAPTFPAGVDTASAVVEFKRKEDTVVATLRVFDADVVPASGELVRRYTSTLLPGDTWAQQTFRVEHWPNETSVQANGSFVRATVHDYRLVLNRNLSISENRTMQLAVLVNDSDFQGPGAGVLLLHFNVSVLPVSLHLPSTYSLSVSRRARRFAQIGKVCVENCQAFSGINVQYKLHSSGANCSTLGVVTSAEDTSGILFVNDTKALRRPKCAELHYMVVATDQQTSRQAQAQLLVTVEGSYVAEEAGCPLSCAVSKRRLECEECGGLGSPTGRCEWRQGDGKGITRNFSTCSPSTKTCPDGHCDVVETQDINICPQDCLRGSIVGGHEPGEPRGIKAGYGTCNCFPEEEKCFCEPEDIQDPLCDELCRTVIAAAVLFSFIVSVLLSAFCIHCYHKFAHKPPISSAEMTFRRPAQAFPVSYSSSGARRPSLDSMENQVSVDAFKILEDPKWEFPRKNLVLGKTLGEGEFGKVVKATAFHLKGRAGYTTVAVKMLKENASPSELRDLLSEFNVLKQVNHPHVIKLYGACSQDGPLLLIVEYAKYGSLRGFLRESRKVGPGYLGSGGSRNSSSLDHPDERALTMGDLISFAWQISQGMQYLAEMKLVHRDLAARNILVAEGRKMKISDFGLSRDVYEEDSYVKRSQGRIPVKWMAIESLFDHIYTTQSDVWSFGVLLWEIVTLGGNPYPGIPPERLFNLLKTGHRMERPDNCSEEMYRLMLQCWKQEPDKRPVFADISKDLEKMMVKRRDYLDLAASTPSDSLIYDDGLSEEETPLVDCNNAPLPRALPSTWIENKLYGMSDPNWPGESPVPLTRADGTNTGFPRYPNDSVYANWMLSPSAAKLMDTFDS
Sequence (Q16204 whole entry, further chain, the tested form may be a part): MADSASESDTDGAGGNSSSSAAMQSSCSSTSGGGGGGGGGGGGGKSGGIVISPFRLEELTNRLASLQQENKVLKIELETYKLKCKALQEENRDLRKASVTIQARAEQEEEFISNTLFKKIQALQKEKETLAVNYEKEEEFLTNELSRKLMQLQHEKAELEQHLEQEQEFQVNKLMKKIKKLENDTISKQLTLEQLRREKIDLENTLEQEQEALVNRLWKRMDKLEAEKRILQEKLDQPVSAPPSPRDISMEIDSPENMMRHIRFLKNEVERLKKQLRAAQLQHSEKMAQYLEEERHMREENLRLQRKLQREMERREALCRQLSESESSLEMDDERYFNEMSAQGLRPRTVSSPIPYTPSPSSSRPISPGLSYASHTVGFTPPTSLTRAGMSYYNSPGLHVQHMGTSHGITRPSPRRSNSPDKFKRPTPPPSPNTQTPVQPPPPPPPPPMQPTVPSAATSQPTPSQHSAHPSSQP
observable: IC50 (nM)
Numbers only; they are read as nM.

**Q:** Tell me the measured IC50 of `CN1CCN(Cc2ccc(NC(=O)c3cncc(C#Cc4cnc(N)c5ncccc45)c3)cc2C(F)(F)F)CC1` , please.
**A:** 3
